The reported measurements were obtained from patent US9708368B2.

test.system: S. aureus SPase (Staphylococcus aureus, UniProt P0A070)
Sequence (P0A070 whole entry): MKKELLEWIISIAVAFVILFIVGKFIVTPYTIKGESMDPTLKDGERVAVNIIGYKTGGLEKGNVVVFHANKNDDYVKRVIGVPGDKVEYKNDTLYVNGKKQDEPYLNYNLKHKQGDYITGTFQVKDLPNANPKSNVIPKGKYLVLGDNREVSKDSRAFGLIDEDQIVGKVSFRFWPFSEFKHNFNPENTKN
assay.comment: biochemical
Square brackets hold non-standard residues; d marks the D form. Peptide text beside a SMILES is read from it. * marks the point of attachment. ξ: configuration not given here. Biphenylcarbonyl(4'-Bu) = CCCCc1ccc(-c2ccc(C(=O)*)cc2)cc1; X1 = C[C@H](N*)B1OC2C[C@@H]3C[C@@H](C3(C)C)[C@]2(C)O1; X5 = C[C@H](N*)B1OC2C3CCC(C3(C)C)C2(C)O1; NMeThr(3ξ) = CN[C@H](C(=O)O)C(C)O; Myristoyl = CCCCCCCCCCCCCC(=O)*; Thr(3ξ) = CC(O)[C@H](N)C(=O)O; 4Amb = NCc1ccc(C(=O)O)cc1; Dab = NCC[C@H](N)C(=O)O; Dap = NC[C@H](N)C(=O)O; X14 = CCCCc1ccc(*)cc1; boroGly = OB(O)CN*
measured.property: pIC50
Note: pIC50 values are expressed as the negative base-10 logarithm of concentration in M.

INSERT INTO measurements (compound, value) VALUES
  ('CCCCc1ccc(-c2ccc(C(=O)N[C@H](CO)C(=O)N[C@H](C)C(=O)NCC(=O)N[C@H](C(=O)N[C@@H](C)C(=O)N[C@@H](CC(N)=O)C(=O)NCB(O)O)C(C)O)cc2)cc1 (stereo partly shown) [Compound 115] ({Biphenylcarbonyl(4''-Bu)}-[dS][dA]G[Thr(3ξ)]AN-boroGly)', 6.77),
  ('CCCCc1ccc(NCc2ccc(C(=O)N[C@@H](CCN)C(=O)N[C@H](C(=O)N[C@@H](C)C(=O)N[C@@H](CCCCN)C(=O)N[C@@H](C)B3OC4C[C@@H]5C[C@@H](C5(C)C)[C@]4(C)O3)[C@@H](C)O)cc2)cc1 (stereo partly shown) [Compound 250] ({X14-4Amb}-[Dab]TAK-X1)', 6.96),
  ('CCCCc1ccc(-c2ccc(C(=O)N[C@@H](CN)C(=O)N[C@@H](CN)C(=O)N[C@@H](C)C(=O)N[C@@H](CC(C)C)C(=O)N[C@@H](C)B3OC4C[C@@H]5C[C@@H](C5(C)C)[C@]4(C)O3)cc2)cc1 (stereo partly shown) [Compound 170] ({Biphenylcarbonyl(4''-Bu)}-[Dap][Dap]AL-X1)', 6.28);

Proceeding to the next compound to report its pIC50.
Asked: # return pIC50 of CCCCCCCCCCCCCC(=O)N[C@H](CO)C(=O)N[C@H](C)C(=O)NCC(=O)N(C)[C@H](C(=O)N[C@@H](C)C(=O)N[C@@H](CC(C)C)C(=O)N[C@@H](C)B1OC2C3CCC(C3(C)C)C2(C)O1)C(C)O (stereo partly shown) [Compound 123] (Myristoyl-[dS][dA]G[NMeThr(3ξ)]AL-X5) (system: S. aureus SPase (Staphylococcus aureus, UniProt P0A070))
Given back: 7.38

---

# Lookup of reported IC50 keyed by entry
test.system: S. aureus SPase (Staphylococcus aureus)
assay.comment: biochemical
Square brackets hold non-standard residues; d marks the D form. Peptide text beside a SMILES is read from it. * marks the point of attachment. boroAla((+)-pinanediol) = C[C@H](N*)B1O[C@@H]2C[C@@H]3C[C@@H](C3(C)C)[C@]2(C)O1; Biphenylcarbonyl(4'-Bu) = CCCCc1ccc(-c2ccc(C(=O)*)cc2)cc1; X1 = C[C@H](N*)B1OC2C[C@@H]3C[C@@H](C3(C)C)[C@]2(C)O1; X21 = CCCCc1ccc(-c2ncc(C(=O)*)s2)cc1; boroAla = C[C@H](N*)B(O)O; Dab = NCC[C@H](N)C(=O)O
Provide only the numeric value, understood in nM.

Would you please look over these solved cases?
INSERT INTO assay_data (compound, value) VALUES
  ('CCCCc1ccc(-c2ccc(C(=O)N[C@@H](CCC(=O)O)C(=O)N[C@H](C(=O)N[C@@H](C)C(=O)N[C@@H](CCCCN)C(=O)N[C@@H](C)B(O)O)[C@@H](C)O)cc2)cc1 [Compound 163] ({Biphenylcarbonyl(4''-Bu)}-ETAK-boroAla)', 310),
  ('CCCCc1ccc(-c2ccc(CNCC[C@H](N)C(=O)N[C@H](C(=O)N[C@@H](C)C(=O)N[C@@H](CCCCN)C(=O)N[C@@H](C)B3OC4C[C@@H]5C[C@@H](C5(C)C)[C@]4(C)O3)[C@@H](C)O)cc2)cc1 (stereo partly shown)', 110),
  ('CCCCc1ccc(-c2ncc(C(=O)N[C@@H](CCN)C(=O)N[C@H](C(=O)N[C@@H](C)C(=O)N[C@@H](CCCCN)C(=O)N[C@@H](C)B3OC4C[C@@H]5C[C@@H](C5(C)C)[C@]4(C)O3)[C@@H](C)O)s2)cc1 (stereo partly shown) [Compound 248] (X21-[Dab]TAK-X1)', 170);

Proceeding to the next compound to report its IC50.
Asked: Note IC50 for the compound shown: CCCCc1ccc(-c2ccc(C(=O)N[C@@H](CCCCN)C(=O)N[C@@H](CCC(=O)OCC)C(=O)N[C@@H](C)C(=O)N[C@@H](CCCCN)C(=O)N[C@@H](C)B3O[C@@H]4C[C@@H]5C[C@@H](C5(C)C)[C@]4(C)O3)cc2)cc1 [Compound 261] ({Biphenylcarbonyl(4'-Bu)}-KE(OEt)AK-{boroAla((+)-pinanediol)})
Given back: 280
